Origin of values: ChEMBL document CHEMBL1201862

- Tested on: OVCAR-8
- assay-method-text: NCI tumour cell line growth inhibition, 48 h
Active and inactive are the calls of the source. Rule as the data show it: active = GI50 up to about 1.1 µM and inactive = higher. Where a SMILES comes first, the peptide text is derived from it. [ ]: non-standard residue; d: D form. The star is where a group is joined. Bn2Val = CC(C)[C@@H](C(=O)*)N(Cc1ccccc1)Cc1ccccc1; NH(4-F-benzyl) = Fc1ccc(CN*)cc1; NMeV = CN[C@H](C(=O)O)C(C)C; dNMeA = CN[C@H](C)C(=O)O
measured-quantity: GI50

# example entries with known answers
molecule=c1ccc(/N=c2/sc3ccccc3s/c2=N/c2ccccc2)cc1 measured_quantity=GI50 result="1.89 µM (inactive)"
molecule="CCCCCN1C(=O)C(Cc2ccccc2)N=C(c2ccc(O)cc2)c2cc(Cl)ccc21 (stereo not given)" measured_quantity=GI50 result="8.87 µM (inactive)"
molecule="COc1ccc(CC(C)NCC(O)c2ccc(O)c(NC=O)c2)cc1 (stereo not given)" measured_quantity=GI50 result="> 100 µM (inactive)"
molecule=Cc1cccc(C(C)C)c1NC(=O)C(=O)CC(=O)c1c(C)[n+]([O-])c2ccccc2[n+]1[O-] measured_quantity=GI50 result="31.9 µM (inactive)"
molecule="CN1C2C=C(c3ccccc3)CC1CC2 (stereo not given)" measured_quantity=GI50 result="> 100 µM (inactive)"
molecule=CCCc1cc(O)c2c(C)c3[nH]c4ccc(Cl)cc4c3c(C)c2n1 measured_quantity=GI50 result="2.55 µM (inactive)"

Which GI50 value belongs to CC(C)[C@H](NC(=O)[C@H](C(C)C)N(Cc1ccccc1)Cc1ccccc1)C(=O)N(C)[C@H](C(=O)N1CCC[C@H]1C(=O)N(C)[C@H](C)C(=O)NCc1ccc(F)cc1)C(C)C (Bn2Val-V[NMeV]P[dNMeA]-{NH(4-F-benzyl)}) ?
4.01 µM (inactive)

Entry Cc1ccc2oc(=O)c(C(=O)Nc3nc(C45CC6CC(CC(C6)C4)C5)cs3)cc2c1 please
> 100 µM (inactive)

And the next one, O=C(O)CN(CCNC(=O)OCC1c2ccccc2-c2ccccc21)CCNC(=O)OCC1c2ccccc2-c2ccccc21 ?
20.1 µM (inactive)

###

- Test system: NCI-H460
- assay-method-text: NCI tumour cell line growth inhibition, 48 h
The source made the active and inactive calls. Rule as the data show it: active = GI50 up to about 1.1 µM and inactive = higher.
Result category, one only: y = active, n = inactive

# example entries with known answers
molecule=CC(C)CC(=O)NS(=O)(=O)c1ccccc1 target_system=NCI-H460 class_assignment=n
molecule=COc1cc(Nc2nc3cc(C)ccc3nc2-c2ccccc2)cc(OC)c1OC target_system=NCI-H460 class_assignment=n
molecule="COc1ccc(C2CCc3nc4nc(N)nc(N)c4cc3C2)cc1 (stereo unspecified)" target_system=NCI-H460 class_assignment=n
molecule="OC1(c2ccccc2)c2ccccc2N=C2NCCN21 (stereo unspecified)" target_system=NCI-H460 class_assignment=n
molecule="NC1=C2C(Br)=CN([C@@H]3O[C@H](CO)[C@@H](O)[C@@H]3O)C2C(=O)N=N1 (stereo partly specified)" target_system=NCI-H460 class_assignment=n

Any idea what this test logged for COc1ccc(C2=C(Cl)C(=O)O/C2=C\c2ccc(OC)c(Br)c2)cc1Cl ?
n

What about this molecule? O=C(Cc1ccccc1)NN1C(=O)C(Cl)C1c1ccc(O)cc1 (stereo unspecified)
n

Same again, this time with CCCCCCCCCCCCc1ccc(S(=O)(=O)O)cc1
n

Same again, this time with Cc1ccccc1NC(=S)N/N=C(/c1ccccc1)c1ccccn1
y

Another: COP(=O)(OC)C(Cc1cn(C(C)=O)c2ccccc12)C(=O)O (stereo unspecified)
n

Also need C1=Nc2sc3c(c2C2=NCCN12)CCCC3 , thanks.
n
